Biological target: Cyclin-dependent kinase 1 (Homo sapiens, UniProt P06493)
Sequence (P06493 whole entry): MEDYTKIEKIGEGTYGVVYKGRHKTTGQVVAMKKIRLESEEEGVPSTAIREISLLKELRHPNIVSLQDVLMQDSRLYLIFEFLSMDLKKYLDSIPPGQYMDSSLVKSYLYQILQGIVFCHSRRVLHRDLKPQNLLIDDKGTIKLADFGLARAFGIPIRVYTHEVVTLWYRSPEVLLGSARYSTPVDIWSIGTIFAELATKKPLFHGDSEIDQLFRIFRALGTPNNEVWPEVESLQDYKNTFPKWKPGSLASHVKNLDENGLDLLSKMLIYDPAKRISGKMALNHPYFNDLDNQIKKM
Overview of recorded pIC50 for various molecules
Convention used: pIC50 is expressed as -log10 of the molar concentration.

• Cc1cc(N2CCCS2(=O)=O)c2oc(-c3ccc(O)c(C#N)c3)c(O)c(=O)c2c1 = 6.80

Proceeding to the next molecule to report its pIC50.
Lab note: need pIC50 for `Cc1cc(N2CCCS2(=O)=O)c2oc(-c3ccc(O)c(Cl)c3)c(O)c(=O)c2c1` on Cyclin-dependent kinase 1 (Homo sapiens, UniProt P06493), anyone have it? 7.48

====

Here's a batch of compounds along with measured IC50 for Cyclin-dependent kinase 2 (Homo sapiens).
Your answer is read as µM, so omit the unit and give the number.

Before answering, review these 9 worked examples.
- O=c1cc(-c2ccc(O)c(O)c2)oc2cc(O)cc(O)c12: 20
- Cc1cc(N2C(=O)CNC2=O)c2oc(-c3ccc(O)c(O)c3)c(O)c(=O)c2c1: 4
- Cc1cc(N2CCCC2=O)c2oc(-c3ccc(O)c(O)c3)c(O)c(=O)c2c1: 1.6
- Cc1cc(N2CCCCC2)c2oc(-c3ccc(O)c(O)c3)c(O)c(=O)c2c1: 2.6
- Cc1cc(N2C(=O)CCC2=O)c2oc(-c3ccc(O)c(O)c3)c(O)c(=O)c2c1: 1.5
- Cc1cc(N2C(=O)CCCC2=O)c2oc(-c3ccc(O)c(O)c3)c(O)c(=O)c2c1: 4.4
- O=c1c(O)c(-c2ccc(O)c(O)c2)oc2cc(O)ccc12: 5
- O=c1c(O)c(-c2ccc(O)c(O)c2)oc2cc(O)cc(O)c12: 40
- Cc1cc(N)c2oc(-c3ccc(O)c(O)c3)c(O)c(=O)c2c1: 0.63

Proceeding to the next compound to report its IC50.
Lab note: need IC50 for `Cc1cc(N2C(=O)CN(C)C2=O)c2oc(-c3ccc(O)c(O)c3)c(O)c(=O)c2c1` on Cyclin-dependent kinase 2 (Homo sapiens), anyone have it? 0.056

====

Overview of recorded GI50 for various compounds
Test system: EJ
Assay: Cytotoxicity against EJ cells after 48 hrs
Format: functional
Conditions: Homo sapiens
Your answer is read as nM, so omit the unit and give the number.

- Cc1cc(N2CCCS2(=O)=O)c2oc(-c3ccc(O)cc3)c(O)c(=O)c2c1: 270
- Cc1cc(N2C(=O)CN(C)C2=O)c2oc(-c3ccc(O)c(O)c3)c(O)c(=O)c2c1: 1100
- Cc1cc(N2CCCS2(=O)=O)c2oc(-c3ccc(O)c(Cl)c3)c(O)c(=O)c2c1: 65

Lab note: need GI50 for `Cc1cc(N2CCCS2(=O)=O)c2oc(-c3ccc(O)c(C(F)(F)F)c3)c(O)c(=O)c2c1` on EJ, anyone have it? 1300

Lab note: need GI50 for `Cc1cc(N2CCCS2(=O)=O)c2oc(-c3ccc(O)c(O)c3)c(O)c(=O)c2c1` on EJ, anyone have it? 600

Lab note: need GI50 for `Cc1cc(N2CCCS2(=O)=O)c2oc(-c3ccc(O)c(Br)c3)c(O)c(=O)c2c1` on EJ, anyone have it? 64

Lab note: need GI50 for `Cc1cc(N2C(=O)CCC2=O)c2oc(-c3ccc(O)c(O)c3)c(O)c(=O)c2c1` on EJ, anyone have it? 1200
